Lab note: Ki readings collected with Gonadotropin-releasing hormone receptor (Rattus norvegicus) for the following molecules.
Square brackets hold non-standard residues; d marks the D form. Peptide text beside a SMILES is read from it. 1Nal = N[C@@H](Cc1cccc2ccccc12)C(=O)O; pGlu = O=C1CC[C@@H](C(=O)O)N1
Write it as a number; the unit nM goes unstated.

What value of measured Ki is listed for CCNC(=O)[C@@H]1CCCN1C(=O)[C@H](CCCN=C(N)N)NC(=O)[C@H](CC(C)C)NC(=O)[C@@H](Cc1c[nH]c2ccccc12)NC(=O)[C@H](Cc1ccc(O)cc1)NC(=O)[C@H](CO)NC(=O)[C@H](Cc1cccc2ccccc12)NC(=O)[C@H](Cc1cnc[nH]1)NC(=O)[C@@H]1CCC(=O)N1 ? 0.02

Value lookup for Ki; key = CC(C)C[C@H](NC(=O)[C@@H](Cc1ccc2ccccc2c1)NC(=O)[C@H](Cc1ccc(O)cc1)NC(=O)[C@H](CO)NC(=O)[C@H](Cc1c[nH]c2ccccc12)NC(=O)[C@H](Cc1c[nH]cn1)NC(=O)[C@@H]1CCC(=O)N1)C(=O)N[C@@H](CCCNC(=N)N)C(=O)N1CCC[C@H]1C(=O)NCC(N)=O 0.01

Quick check: Ki of CC(C)C[C@H](NC(=O)CNC(=O)[C@H](Cc1ccc(O)cc1)NC(=O)[C@H](CO)NC(=O)[C@H](Cc1c[nH]c2ccccc12)NC(=O)[C@H](Cc1cnc[nH]1)NC(=O)[C@@H]1CCC(=O)N1)C(=O)N[C@@H](CCCN=C(N)N)C(=O)N1CCC[C@H]1C(=O)NCC(=O)O ? 1.26

What Ki value was documented for this molecule, CCNC(=O)[C@@H]1CCCN1C(=O)[C@H](CCCN=C(N)N)NC(=O)[C@H](CC(C)C)NC(=O)[C@@H](CC(C)C)NC(=O)[C@H](Cc1ccc(O)cc1)NC(=O)[C@H](CO)NC(=O)[C@H](Cc1cccc2ccccc12)NC(=O)[C@H](Cc1c[nH]cn1)NC(=O)[C@@H]1CCC(=O)N1 [leuprolide 31Nal] ([pGlu]H[1Nal]SY[dL]LRP-NHEt) ? 0.09

I am curious: what Ki value has been reported for CCNC(=O)[C@@H]1CCCN1C(=O)[C@H](CCCN=C(N)N)NC(=O)[C@H](CC(C)C)NC(=O)[C@@H](CC(C)C)NC(=O)[C@H](Cc1ccc(O)cc1)NC(=O)[C@H](CO)NC(=O)[C@H](Cc1c[nH]c2ccccc12)NC(=O)[C@H](Cc1cnc[nH]1)N(C)C(=O)[C@@H]1CCC(=O)N1 [leuprolide 2 NMeHis] ? 33.1
